System: PIP5K2C;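 note: KINOMEscan scanMAX binding as percent activity remaining versus control; lower means stronger binding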
Construct: gene PIP4K2C
Details: Compound Concentration (nM):1000
QUANTITY KIND: Percent Control
A complete answer gives the number and then names the unit.

[in] Given the entry COc1ccccc1-c1cc(/C=C2\C(=O)Nc3ncc(Br)cc32)cc(Br)c1O [GW442130X] , report its measured Percent Control.
[out] 100%

[in] Can you handle CCS(=O)(=O)c1ccc(OC)c(Nc2ncc(-c3cccc(OC)c3)o2)c1 [GW580509X] next?
[out] 11%

Further cases:
[in] Given the entry Nc1ncnc2occ(-c3ccc(NC(=O)Nc4cc(C(F)(F)F)ccc4F)cc3)c12 [GW770249X] , report its measured Percent Control.
[out] 77%

[in] Can you handle CCc1ccc(Oc2nccc(-c3c(-c4ccc(F)cc4)ncn3C3CCNCC3)n2)cc1 [SB-242719] next?
[out] 100%

[in] Can you handle COC(=O)Nc1nc2ccc(Oc3ccc(NC(=O)Nc4cc(C(F)(F)F)ccc4F)cc3)cc2s1.Cl [GW693917A] next?
[out] 96%

[in] Can you handle NS(=O)(=O)c1ccc(N/N=C2\C(=O)Nc3ccc(Cl)cc32)cc1 [GW280670X] next?
[out] 81%

[in] Can you handle Cl.c1ccc(Cc2nc3ccc(Nc4ncnc5ccccc45)cc3[nH]2)cc1 [GR269666A] next?
[out] 71%

[in] Can you handle COc1cc(/C=N/Nc2ncnc3[nH]ncc23)ccc1O [GW578748X] next?
[out] 24%
